Target: T1, Human CD3eg linker (human)
T1 construct: Single chain: epsilon and gamma subunits of human CD3 joined by a 29-mer linker, Flag-tag at the C-terminus; also called recombinant human CD3
T1 chain: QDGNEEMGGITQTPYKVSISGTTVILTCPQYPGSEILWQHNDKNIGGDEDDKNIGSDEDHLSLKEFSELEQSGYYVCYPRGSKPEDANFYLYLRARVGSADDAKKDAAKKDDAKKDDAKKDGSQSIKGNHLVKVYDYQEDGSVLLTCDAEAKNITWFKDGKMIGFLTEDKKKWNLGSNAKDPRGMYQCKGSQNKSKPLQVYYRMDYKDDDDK
Assay: Biacore SPR, vs template H183/L072
recorded.endpoint: fold change of affinity (fold)
Record the value in fold, omitting the unit from your answer.

Completed entries (count: 2):
{"columns": ["binder", "fold change of affinity (fold)"],
 "data": [
  ["H183/L072 VH H35F (antibody, name in Kabat numbering, V domains shown) VH: QVQLVESGGGLVQPGRSLRLSCAASGFTFSNAWMFWVRQAPGKGLEWVAQIKDKGNAYAAYYAPSVKGRFTISRDDSKNSIYLQMNSLKTEDTAVYYCHYVHYASASTVLPAFGVDAWGQGTTVTVSS VL: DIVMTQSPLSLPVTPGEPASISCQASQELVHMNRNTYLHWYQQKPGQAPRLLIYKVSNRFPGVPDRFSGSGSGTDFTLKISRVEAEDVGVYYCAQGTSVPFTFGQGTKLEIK", 0],
  ["H183/L072 VH P100eM (antibody, name in Kabat numbering, V domains shown) VH: QVQLVESGGGLVQPGRSLRLSCAASGFTFSNAWMHWVRQAPGKGLEWVAQIKDKGNAYAAYYAPSVKGRFTISRDDSKNSIYLQMNSLKTEDTAVYYCHYVHYASASTVLMAFGVDAWGQGTTVTVSS VL: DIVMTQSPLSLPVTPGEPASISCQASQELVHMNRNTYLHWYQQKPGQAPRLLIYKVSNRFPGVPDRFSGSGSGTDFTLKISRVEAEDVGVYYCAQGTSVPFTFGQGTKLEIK", 1.8]
]}

Query: Quick one: fold change of affinity for H183/L072 VH G52cN (antibody, name in Kabat numbering, V domains shown) VH: QVQLVESGGGLVQPGRSLRLSCAASGFTFSNAWMHWVRQAPGKGLEWVAQIKDKNNAYAAYYAPSVKGRFTISRDDSKNSIYLQMNSLKTEDTAVYYCHYVHYASASTVLPAFGVDAWGQGTTVTVSS VL: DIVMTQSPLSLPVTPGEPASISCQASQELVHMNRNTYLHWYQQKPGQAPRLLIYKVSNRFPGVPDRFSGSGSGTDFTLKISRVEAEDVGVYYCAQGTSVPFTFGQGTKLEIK ?
Response: 1.2

Each recorded value in this set is attributed to patent US20210388087A1.
